Provenance of the data: the supplement of paper PMC8960247

System: 621-102 (TSC2-deficient)
Test: relative viability vs DMSO; higher = less cytotoxic
Settings: 0.001 µM; serum: 10% FBS; 72 h
Where a name gives a salt, the structure may show the parent alone.
Metric name: relative viability (%)
One number for each entry, in %.

Cn1cc(-c2ccc3nnc(C(F)(F)c4ccc5ncccc5c4)n3n2)cn1    101

Value sought for every listed compound: relative viability.
1. O=c1ncn2nc(Sc3ccc(F)cc3F)ccc2c1-c1c(Cl)cccc1Cl [VX-745]
2. FC(F)(F)c1ccc(Nc2nc3ccc(Oc4ccnc(-c5ncc(C(F)(F)F)[nH]5)c4)cc3[nH]2)cc1 [Raf265 derivative]
3. Cc1cc(Nc2cc(N3CCN(C)CC3)nc(Sc3ccc(NC(=O)C4CC4)cc3)n2)n[nH]1 [VX-680 (MK-0457)]
4. O=C(c1ccc(F)cc1)C1CCN(CCn2c(=O)[nH]c3ccccc3c2=O)CC1 [Ketanserin (Vulketan Gel)]
5. Cc1ccc(C(=O)N(CCCN)[C@@H](c2oc3cc(Cl)ccc3c(=O)c2Cc2ccccc2)C(C)C)cc1
6. CC(NCCc1ccc(O)cc1)C(O)c1ccc(O)cc1 (stereo not drawn) [Ritodrine HCl]

1. 112
2. 94.5
3. 90.4
4. 103
5. 67.7
6. 112

Tell us which relative viability value is on record for CC(C)(C)c1cnc(CSc2cnc(NC(=O)C3CCNCC3)s2)o1
108

* * *

For each entry below, report its relative viability value.
Tested on: 621-102 (TSC2-deficient)
Experiment: relative viability vs DMSO; higher = less cytotoxic
Settings: 10 µM; serum: 10% FBS; 72 h
Counter-ions that a name gives are not always drawn.
One number for each entry, in %.

Recorded relative viability, per entry:
NC(=O)c1ccc(I)c([N+](=O)[O-])c1    110
NC(=O)c1cccc2[nH]c(-c3ccc(C4CCCN4)cc3F)nc12 (centres undefined)    94
NC1=N[C@@]2(c3cc(NC(=O)c4ccc(F)cn4)ccc3F)COC[C@H]2CS1    96.4

Value sought for every listed molecule: relative viability.
1. COc1cc2c(Oc3ccc4[nH]c(C)cc4c3F)ncnc2cc1OCCCN1CCCC1
2. CN1[C@@H]2CC[C@H]1C[C@@H](OC(=O)c1c[nH]c3ccccc13)C2 [Tropisetron HCl]
3. Nc1nccc(Oc2ccc(NC(=O)c3c[nH]cc(-c4ccc(F)cc4)c3=O)cc2F)c1Cl
4. COc1ccnc2[nH]cc(C(=O)C(=O)N3CCN(C(=O)c4ccccc4)C[C@H]3C)c12

10.6
93.3
94.5
88.5

Value sought for every listed molecule: relative viability.
1. CNCc1ccc(-c2[nH]c3cc(F)cc4c3c2CCNC4=O)cc1
2. CC(C)[C@H](O)C(=O)N[C@@H](C)C(=O)N[C@@H]1C(=O)N(C)CCc2ccccc21

98.5
116

* * *

System: 621-102 (TSC2-deficient);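 note: immortalized renal angiomyolipoma cells stably carrying empty vector or TSC2, dosed in 384-well plates in DMEM, viability normalized to vehicle-treated wells within each plate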
Assay: relative viability vs DMSO; higher = less cytotoxic
Conditions: 0.001 µM; serum: 10% FBS; 72 h
Structures can show the parent of a compound that is named as a salt.
Metric name: relative viability (%)
One number for each entry, in %.

Recorded relative viability, per entry:
Cc1cccc(-c2[nH]c(C(C)(C)C)nc2-c2ccc3nccnc3c2)n1    111
COc1ccc(-n2nc(C(N)=O)c3c2C(=O)N(c2ccc(N4CCCCC4=O)cc2)CC3)cc1    121
O=C(c1ccc(/C=C/c2n[nH]c3ccccc23)cc1)N1CCNCC1    92.5
CNCc1ccc(-c2[nH]c3cc(F)cc4c3c2CCNC4=O)cc1    109

As a next step, examine the compound that follows.
Tell us which relative viability value is on record for CN1CCc2c(c3ccccc3n2Cc2ccc(C(=O)NO)cc2)C1 [Tubastatin A HCl]
91.6
